Target: Zap-70 (Homo sapiens)
Construct: Kinases are expressed as either kinase domains or full length constructs; made in house
Sequence (P43403 whole entry, species assumed, the tested form may be a part): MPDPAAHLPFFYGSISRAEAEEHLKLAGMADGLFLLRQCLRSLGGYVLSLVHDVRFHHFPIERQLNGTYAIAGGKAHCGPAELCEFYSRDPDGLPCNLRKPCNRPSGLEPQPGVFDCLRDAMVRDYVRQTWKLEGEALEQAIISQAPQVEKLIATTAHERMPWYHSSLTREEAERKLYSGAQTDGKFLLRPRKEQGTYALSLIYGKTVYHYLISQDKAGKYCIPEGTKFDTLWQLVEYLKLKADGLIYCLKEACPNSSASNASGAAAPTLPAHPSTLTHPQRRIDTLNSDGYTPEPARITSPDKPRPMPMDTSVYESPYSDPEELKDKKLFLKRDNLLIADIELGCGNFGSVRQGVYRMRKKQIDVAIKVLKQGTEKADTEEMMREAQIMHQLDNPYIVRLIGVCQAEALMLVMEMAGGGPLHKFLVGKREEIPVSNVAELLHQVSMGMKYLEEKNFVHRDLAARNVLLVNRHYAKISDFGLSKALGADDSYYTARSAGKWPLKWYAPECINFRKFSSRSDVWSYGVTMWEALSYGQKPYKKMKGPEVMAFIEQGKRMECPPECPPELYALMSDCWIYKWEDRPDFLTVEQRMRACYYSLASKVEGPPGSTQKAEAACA
Test: Kinase inhibition assay (33P transfer), Zap-70
Type: biochemical
Conditions: Table 3, class symbols; read-out: Zap-1
Description: The inhibitor compounds described herein are screened in the following manner. […] Kinases are expressed as either kinase domains or full length constructs fused to glutathione S-transferase (GST) or polyHistidine tagged fusion proteins in either E. colior Baculovirus-High Five expression systems. […]
pIC50: −log10 of the molar value.
ENDPOINT_NAME: pIC50

Here are 2 molecules together with their reported answers.
q: // query pIC50 value for entry Fc1ccc(CNc2ncccc2-c2ncnc(Nc3ccc4[nH]ncc4c3)n2)cc1
a: 5.07 to 5.24

q: Entry CN(c1cccc(Cl)c1)c1ncnc(Nc2ccc3nn(C)cc3c2)n1 please
a: < 4.91

Further cases:
q: // query pIC50 value for entry COc1ccc(CCNc2ncnc(Nc3cc(-c4ccco4)[nH]n3)n2)cc1OC
a: 4.96 to 5.07

q: Entry CC(C)Nc1ncccc1-c1ncnc(Nc2cccc(CO)c2)n1 please
a: 4.87 to 4.98

q: Entry O=C(O)c1cccc(Nc2ncnc(-n3c(NCc4ccccc4)nc4ccccc43)n2)c1 please
a: < 4.99

q: Entry COc1ccc(Nc2ncnc(N(C)c3ccccc3Cl)n2)cc1OC please
a: < 4.92

q: Entry Fc1ccc(CNc2ncnc(Nc3cc(-c4ccco4)n[nH]3)n2)cc1 please
a: < 4.89

q: Entry COc1cc(Nc2ncnc(N(CCO)c3ccccc3)n2)cc(OC)c1OC please
a: < 4.95

q: Entry COc1cc(C)c(Nc2ncnc(Nc3cc(-c4ccc(Cl)cc4)n[nH]3)n2)cc1OC please
a: < 4.99

q: Entry COc1ccc(Nc2ncnc(NCc3ncc(C(F)(F)F)cc3Cl)n2)cc1OC please
a: < 4.99

q: Entry COc1ccc(Nc2ncnc(N(C)CC(O)c3ccccc3)n2)cc1OC (stereo not shown) please
a: < 4.93

q: Entry CNS(=O)(=O)Cc1ccc(Nc2ncnc(Nc3cc(-c4ccco4)[nH]n3)n2)cc1 please
a: < 4.98

q: Entry CN(c1cccc(Br)c1)c1ncnc(Nc2cccc(Cc3nnn[nH]3)c2)n1 please
a: < 4.99

---

Biological target: UniProt P04626
Sequence (P04626 23-1255, species assumed): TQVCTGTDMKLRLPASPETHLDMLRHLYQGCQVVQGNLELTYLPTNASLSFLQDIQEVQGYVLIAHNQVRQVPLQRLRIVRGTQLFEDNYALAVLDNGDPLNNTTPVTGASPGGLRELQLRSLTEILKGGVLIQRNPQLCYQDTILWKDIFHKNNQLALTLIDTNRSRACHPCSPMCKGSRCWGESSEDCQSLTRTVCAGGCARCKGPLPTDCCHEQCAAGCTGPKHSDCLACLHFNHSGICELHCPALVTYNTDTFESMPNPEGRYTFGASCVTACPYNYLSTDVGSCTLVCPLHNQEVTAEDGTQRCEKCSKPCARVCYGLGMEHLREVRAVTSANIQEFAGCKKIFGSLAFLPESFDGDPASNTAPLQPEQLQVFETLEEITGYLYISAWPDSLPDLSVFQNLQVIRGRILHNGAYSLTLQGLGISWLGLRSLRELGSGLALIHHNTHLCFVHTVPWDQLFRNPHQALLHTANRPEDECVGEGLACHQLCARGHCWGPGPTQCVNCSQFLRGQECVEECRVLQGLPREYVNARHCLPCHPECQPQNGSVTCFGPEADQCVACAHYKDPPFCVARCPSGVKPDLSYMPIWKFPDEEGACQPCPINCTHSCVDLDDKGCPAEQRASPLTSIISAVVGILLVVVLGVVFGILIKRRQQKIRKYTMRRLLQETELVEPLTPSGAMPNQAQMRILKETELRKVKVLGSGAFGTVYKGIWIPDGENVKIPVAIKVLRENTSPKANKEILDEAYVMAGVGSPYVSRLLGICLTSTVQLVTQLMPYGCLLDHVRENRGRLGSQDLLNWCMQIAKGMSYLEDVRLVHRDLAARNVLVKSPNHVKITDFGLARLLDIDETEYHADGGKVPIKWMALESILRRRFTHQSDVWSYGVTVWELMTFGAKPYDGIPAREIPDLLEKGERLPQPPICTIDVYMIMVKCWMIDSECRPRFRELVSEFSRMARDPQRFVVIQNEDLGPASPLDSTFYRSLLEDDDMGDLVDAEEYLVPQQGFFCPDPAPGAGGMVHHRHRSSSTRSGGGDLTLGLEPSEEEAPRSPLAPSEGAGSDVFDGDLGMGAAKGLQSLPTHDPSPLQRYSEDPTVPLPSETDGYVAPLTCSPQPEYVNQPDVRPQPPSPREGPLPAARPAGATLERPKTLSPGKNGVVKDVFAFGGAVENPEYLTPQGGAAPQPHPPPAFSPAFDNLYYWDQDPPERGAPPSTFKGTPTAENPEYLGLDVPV
ENDPOINT_NAME: IC50

q: For the record COc1cc(Nc2ncnc(-n3c(NCc4ccccc4Cl)nc4ccccc43)n2)cc(OC)c1OC [Compound 943] , what value of IC50 is listed for UniProt P04626?
a: > 8.69 µM

Further cases:
q: For the record Nc1nc2ccccc2n1-c1ncnc(Nc2cccc(Cn3ccnn3)c2)n1 [Compound 960] , what value of IC50 is listed for UniProt P04626?
a: 6.24 to 9.1 µM

q: Entry COc1cc(Nc2ncnc(-c3cccnc3NC(C)C)n2)ccc1NC(=O)CCCN1CCNCC1 [Compound 1096] please
a: > 8.9 µM

q: Entry Nc1nc2ccccc2n1-c1ncnc(Nc2cccc(CC(=O)O)c2)n1 [Compound 544] please
a: > 12.5 µM

q: Entry COc1ccc(Nc2ncnc(Nc3cc(Cl)cc(Cl)c3)n2)cc1OC [Compound 898] please
a: > 11.5 µM

q: Entry COc1ccc(Nc2ncccc2-c2ncnc(Nc3cc(OC)c(OC)c(OC)c3)n2)c(C)c1 [Compound 1086] please
a: 7.38 to 9.48 µM

q: Entry CC(C)Nc1ncccc1-c1ncnc(Nc2ccc(C(N)=O)cc2)n1 [Compound 1084] please
a: > 12.9 µM
